Target: Cannabinoid receptor 1 (Homo sapiens)
Sequence (P21554 whole entry): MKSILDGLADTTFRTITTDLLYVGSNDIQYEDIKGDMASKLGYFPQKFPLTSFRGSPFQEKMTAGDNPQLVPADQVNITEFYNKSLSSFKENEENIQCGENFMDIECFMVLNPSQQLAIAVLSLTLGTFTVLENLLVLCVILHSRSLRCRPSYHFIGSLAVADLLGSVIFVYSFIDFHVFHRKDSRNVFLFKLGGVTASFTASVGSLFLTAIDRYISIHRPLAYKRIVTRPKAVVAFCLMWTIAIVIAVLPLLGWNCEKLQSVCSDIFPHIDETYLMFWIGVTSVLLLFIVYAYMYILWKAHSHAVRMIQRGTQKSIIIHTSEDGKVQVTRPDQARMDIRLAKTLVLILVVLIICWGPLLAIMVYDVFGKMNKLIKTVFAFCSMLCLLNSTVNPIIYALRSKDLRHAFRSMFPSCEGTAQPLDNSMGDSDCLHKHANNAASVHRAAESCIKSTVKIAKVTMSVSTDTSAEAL
Assay: Binding affinity to human CB1 receptor stably expressing CHO cells assessed as inhibition constant by radioligand binding assay
Format: cell-based
observable: Ki

> print(dat)
                              smiles.record  observable  recorded.result
1  CCOc1ccc(Cc2nc3cc(C(=O)N(CC)CC)ccc3n2CCC(C)C)cc1          Ki           > 5 µM

====

Target: UniProt:P21554
Assay: Displacement of [3H]CP55940 from human CB1 receptor
observable: Ki (nM)

> print(dat)
                                   compound  assayed.system  unit.abbreviation  recorded.result
1  O=C(c1ccc2ccccc2c1)c1cn2c3c(cccc13)OCC2CN1CCOCC1 (stereo unspecified)  UniProt:P21554                 nM             62.3
